# Subject Of Test: KRAS G12D/RAF1 (Homo sapiens, UniProt P01116, G12D)
# Construct: KRAS (1-169) proteins were expressed in E. coli at 18° C; His6-MBP (N, cleaved yes)
# Sequence (P01116 1-169 isoform P01116-2 G12D): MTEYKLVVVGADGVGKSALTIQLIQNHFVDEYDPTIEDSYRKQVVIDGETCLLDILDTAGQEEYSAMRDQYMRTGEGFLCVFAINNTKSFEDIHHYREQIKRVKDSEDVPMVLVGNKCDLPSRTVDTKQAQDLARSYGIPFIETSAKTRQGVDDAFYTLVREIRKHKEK
# Protocol Notes: Protein-protein interaction (PPI) HTRF assay KRAS G12D/RAF1
# Details: KRAS G12D/RAF1, GppNHp-loaded KRAS; 30 minutes pre-incubation
# Text: Biotinylated KRAS wt and KRAS G12DNV proteins were expressed and purified in conditions similar to those previously reported (Tran, et al., 2021) (Zhang, et al., 2020). […] When RAS proteins are in the active GTP-bound conformation, they bind the effector protein RAF1 at the N-terminus Ras-binding domain (RBD, residues 52-131) (Tran, et al., 2021). Homogenous time resolved fluorescence (HTRF) was used to monitor the interaction between wt or mutant KRAS and RAF1 or wt NRAS and RAFT. […]
Measure: IC50

# IC50 of O=C1NC(=O)[C@@H]2CN(c3nc(OC[C@@]45CCCN4C[C@H](F)C5)nc4c3CO[C@@]3(CCc5c(Cl)cccc53)C4)C[C@H]12 = 10 to 100 µM

Reported IC50 for C[C@@]1(O)CCCN(c2nc(OC[C@@]34CCCN3C[C@H](F)C4)nc3c2COC2(CCc4c(Cl)cccc42)C3)C1 (single isomer, unassigned) [Compound 23A] was > 100 µM

---

# Subject Of Test: KRAS G12D/RAF1 (Homo sapiens, UniProt P01116, G12D)
# Construct: KRAS (1-169) proteins were expressed in E. coli at 18° C; His6-MBP (N, cleaved yes)
# Protocol Notes: Protein-protein interaction (PPI) HTRF assay KRAS G12D/RAF1
# Details: KRAS G12D/RAF1, GppNHp-loaded KRAS; 30 minutes pre-incubation
Measure: IC50

Field: example entries. Status: answers known.
# Molecule, Subject Of Test, IC50
data = [
    ("Cc1nnc(-c2nn3c(c2Cl)CN(c2nc(OC[C@@]45CCCN4C[C@H](F)C5)nc4c2CN(C)[C@@]2(CCCc5ccccc52)C4)CCC3)n1C", "KRAS G12D/RAF1 (Homo sapiens, UniProt P01116, G12D)", "10 to 100 µM"),
    ("CN(C)C(=O)c1nn2c(c1C#N)CN(c1nc(OC[C@@]34CCCN3C[C@H](F)C4)nc3c1CN(C)[C@@]1(CCc4cccc(F)c41)C3)CCC2", "KRAS G12D/RAF1 (Homo sapiens, UniProt P01116, G12D)", "10 to 100 µM"),
    ("OC1CCCN(c2nc(OC[C@@]34CCCN3C[C@H](F)C4)nc3c2COC2(CCCc4ccc(Br)cc42)C3)CC1 (stereo partly drawn)", "KRAS G12D/RAF1 (Homo sapiens, UniProt P01116, G12D)", "> 100 µM"),
    ("CN1Cc2c(nc(OCC3(CN4CCOCC4)CC3)nc2N2C[C@H]3CC[C@@H](C2)N3)C[C@]12CCCc1ccccc12", "KRAS G12D/RAF1 (Homo sapiens, UniProt P01116, G12D)", "10 to 100 µM"),
    ("CCN1Cc2c(nc(OC[C@@]34CCCN3C[C@H](F)C4)nc2N2CCCn3nc(C(=O)N(C)C)c(Cl)c3C2)C[C@]12CCCc1ccccc12", "KRAS G12D/RAF1 (Homo sapiens, UniProt P01116, G12D)", "> 100 µM"),
    ("CN(C)C(=O)c1nn2c(c1Cl)CN(c1nc(OC[C@@]34CCCN3C[C@H](F)C4)nc3c1CN(C)[C@@]1(CCc4cccc(F)c41)C3)CCC2", "KRAS G12D/RAF1 (Homo sapiens, UniProt P01116, G12D)", "10 to 100 µM"),
    ("C[C@@]1(NC#N)CCCN(c2nc(OC[C@@]34CCCN3C[C@H](F)C4)nc3c2COC2(CCc4c(Cl)cccc42)C3)C1 (stereo partly drawn) [Compound 46A]", "KRAS G12D/RAF1 (Homo sapiens, UniProt P01116, G12D)", "10 to 100 µM"),
    ("CN(C)C(=O)c1nn2c(c1Cl)CN(c1nc(OCC3(CN4CCOCC4)CC3)nc3c1CN(C)[C@@]1(CCCc4ccccc41)C3)CCC2", "KRAS G12D/RAF1 (Homo sapiens, UniProt P01116, G12D)", "> 100 µM"),
    ("CN(C)C(=O)c1nn2c(c1Cl)CN(c1nc(OC[C@@]34CCCN3C[C@H](F)C4)nc3c1CN(C)[C@]1(CCCc4ccccc41)C3)CCC2 (single isomer, unassigned) [Compound 64B]", "KRAS G12D/RAF1 (Homo sapiens, UniProt P01116, G12D)", "> 100 µM"),
    ("N#Cc1ccc2c(c1)C1(CCC2)Cc2nc(OC[C@@]34CCCN3C[C@H](F)C4)nc(N3CCCCCC3)c2CO1 (stereo partly drawn)", "KRAS G12D/RAF1 (Homo sapiens, UniProt P01116, G12D)", "> 100 µM"),
]

Memo: F[C@H]1CN2CCC[C@@]2(COc2nc3c(c(N4C[C@H]5CC[C@@H](C4)N5)n2)COC2(C3)c3ccccc3-c3n[nH]cc32)C1 (stereo partly drawn) , reported IC50: > 100 µM

Notebook: CN1Cc2c(nc(OC[C@@]34CCCN3C[C@H](F)C4)nc2N2CCCn3nc(N)c(Cl)c3C2)C[C@]12CCCc1ccccc12 , IC50 read as > 100 µM

Sure, the documented IC50 for F[C@H]1CN2CCC[C@@]2(COc2nc3c(c(N4CCCCCC4)n2)COC2(COCc4ccccc42)C3)C1 (stereo partly drawn) is > 100 µM

response.value for CN(C)C(=O)c1cc2n(n1)CCCN(c1nc(OC[C@@]34CCCN3C[C@H](F)C4)nc3c1CN(C)[C@@]1(CCCc4ccc(O)cc41)C3)C2 [Compound 39A] (field: IC50) = 10 to 100 µM

For reference, reported IC50 for CN(C)C(=O)c1nn2c(c1Cl)CN(c1nc(OC[C@@]34CCCN3C[C@H](F)C4)nc3c1CN(C)[C@@]1(CCc4c(F)ccc(F)c41)C3)CCC2 stands at 10 to 100 µM

The recorded IC50 for CN(C)C(=O)c1cc2n(n1)CCCN(c1nc(OC[C@@]34CCCN3C[C@H](F)C4)nc3c1COC1(CCCc4c(Cl)cc(O)cc41)C3)C2 (mixture of isomers) is 10 to 100 µM

GET /value?item= Oc1ccc2c(c1)C1(CCC2)Cc2nc(OC[C@@]34CCCN3C[C@H](F)C4)nc(N3CCCCCC3)c2CO1 (single isomer, unassigned) [Compound 7] &field=IC50 returns > 100 µM

---

# Subject Of Test: KRAS G12D/RAF1 (Homo sapiens, UniProt P01116, G12D)
# Construct: KRAS (1-169) proteins were expressed in E. coli at 18° C; His6-MBP (N, cleaved yes)
# Protocol Notes: Protein-protein interaction (PPI) HTRF assay KRAS G12D/RAF1
# Details: KRAS G12D/RAF1, GppNHp-loaded KRAS; 30 minutes pre-incubation
Measure: IC50

# Compound, IC50
data = [
    ("O=C1NC(=O)[C@]2(CCCN(c3nc(OC[C@@]45CCCN4C[C@H](F)C5)nc4c3COC3(CCCc5c(Cl)cc(O)cc53)C4)C2)N1 (single isomer, unassigned) [Compound 51B]", "10 to 100 µM"),
]

The reported value for Oc1ccc2c(c1)C1(CCC2)Cc2nc(OC[C@@]34CCCN3C[C@H](F)C4)nc(N3CCCC(O)CC3)c2CO1 (stereo partly shown) [Compound 14] in terms of IC50 is > 100 µM

Noted for N#CC1CCCN(c2nc(OC[C@@]34CCCN3C[C@H](F)C4)nc3c2COC2(CCc4c(Cl)cccc42)C3)CC1 (stereo partly shown) [Compound 16] : its IC50 reads > 100 µM

Sample N#CCC1CCCN(c2nc(OC[C@@]34CCCN3C[C@H](F)C4)nc3c2COC2(CCc4c(Cl)cccc42)C3)CC1 (stereo partly shown) [Compound 19] ; IC50 observed: > 100 µM

For record CN(C)C(=O)c1nn2c(c1Cl)CN(c1nc(OCC3(CN4CCOCC4)CC3)nc3c1CO[C@@]1(CCc4c(Cl)cccc41)C3)CCC2 [Compound 47] the listed IC50 is > 100 µM

Input O=C1NC(=O)C2(CCCN(c3nc(OC[C@@]45CCCN4C[C@H](F)C5)nc4c3COC3(CCc5ccc(O)cc53)C4)C2)N1 (mixture of isomers) [Compound 30] . Output IC50: > 100 µM

IC50 for CN1Cc2c(nc(OC[C@@]34CCCN3C[C@H](F)C4)nc2N2CCCn3nc(-c4nc5ccccc5n4C)cc3C2)C[C@]12CCCc1ccccc12 [Compound 82] is > 100 µM

For record N=S1(=O)CCN(C(=O)c2nn3c(c2Cl)CN(c2nc(OC[C@@]45CCCN4C[C@H](F)C5)nc4c2CO[C@@]2(CCc5c(Cl)cccc52)C4)CCC3)CC1 [Compound 52] the listed IC50 is 10 to 100 µM

For this compound ( CS(=O)(=O)c1cc2n(n1)CCCN(c1nc(OC[C@@]34CCCN3C[C@H](F)C4)nc3c1CO[C@@]1(CCc4c(Cl)cccc41)C3)C2 [Compound 62] ), measured IC50 is > 100 µM

Lab note: C#Cc1c(C(=O)N(C)C)nn2c1CN(c1nc(OC[C@@]34CCCN3C[C@H](F)C4)nc3c1CN(C)[C@@]1(CCCc4ccccc41)C3)CCC2 [Compound 81] gave IC50 of 10 to 100 µM

The reported value for Nc1ccc2c(c1)C1(CCC2)Cc2nc(OC[C@@]34CCCN3C[C@H](F)C4)nc(N3CCCC(O)CC3)c2CO1 (stereo partly shown) [Compound 13] in terms of IC50 is 10 to 100 µM

The measured IC50 associated with CN(C)C(=O)c1nn2c(c1C#N)CN(c1nc(OC[C@@]34CCCN3C[C@H](F)C4)nc3c1CN(C)[C@@]1(CCCc4ccccc41)C3)CCC2 [Compound 77] reads 10 to 100 µM

For reference, reported IC50 for CC(C)NC(=O)c1cc2n(n1)CCCN(c1nc(OC[C@@]34CCCN3C[C@H](F)C4)nc3c1CO[C@@]1(CCc4c(Cl)cccc41)C3)C2 [Compound 35] stands at > 100 µM

// IC50 value for CN1Cc2c(nc(OC[C@@]34CCCN3C[C@H](F)C4)nc2N2CCC[C@]3(C2)NC(=O)NC3=O)C[C@]12CCCc1ccccc12 [Compound 71] : > 100 µM

Per the records, this compound ( CN1Cc2c(nc(OC[C@@]34CCCN3C[C@H](F)C4)nc2N2CCCn3nc(C(=O)O)c(Cl)c3C2)C[C@]12CCCc1ccccc12 [Compound 78] ) has IC50 equal to 10 to 100 µM

// field: IC50; key: CN1Cc2c(nc(OCC34CCCN3CC(F)C4)nc2N2CC3CCC(C2)C3NC#N)CC12CCCc1ccccc12 (stereo not shown) [Compound 86] ; value = > 100 µM

Measured IC50, OC1CCCN(c2nc(OC[C@@]34CCCN3C[C@H](F)C4)nc3c2COC2(CCCc4ccc(Cl)cc42)C3)CC1 (stereo partly shown) [Compound 17] : 10 to 100 µM
